Biological target: NL20 human bronchial epithelial cells expressing human Z-AAT (Homo sapiens, UniProt P01009, E366K)
Sequence (P01009 25-418 E366K): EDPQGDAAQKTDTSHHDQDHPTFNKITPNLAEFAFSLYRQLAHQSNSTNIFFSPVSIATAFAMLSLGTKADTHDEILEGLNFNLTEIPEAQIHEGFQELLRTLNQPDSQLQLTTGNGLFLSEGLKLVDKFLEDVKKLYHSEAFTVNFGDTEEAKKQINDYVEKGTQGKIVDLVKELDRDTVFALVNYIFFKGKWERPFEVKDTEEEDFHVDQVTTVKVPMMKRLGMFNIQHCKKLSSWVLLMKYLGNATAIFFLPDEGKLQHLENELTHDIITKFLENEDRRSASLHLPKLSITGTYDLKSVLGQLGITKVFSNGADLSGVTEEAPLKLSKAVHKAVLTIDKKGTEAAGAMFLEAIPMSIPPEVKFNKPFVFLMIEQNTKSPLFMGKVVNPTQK
Test: AAT Function Assay (MSD Assay NL20-SI Cell Line)
Conditions: read-out: NL20 Functional EC50
pEC50: −log10 of the molar value.
pEC50 values for the compounds below.

Sample records with pEC50:
# compound, pEC50
records = [
    ("CCC(Cc1nc(C(C)C)c(-c2ccc(F)c(C)c2)c2ccc(O)cc12)C(=O)O (centres unmarked)", "5.52 to 5.92"),
    ("Cc1cc(-c2c(C(C)C)nc(C(=O)Nc3ccc(C(=O)O)cc3)c3cc(O)ccc23)ccc1F", "5.52 to 5.92"),
    ("CCOC(=O)COc1nc(C(C)C)c(-c2ccc(F)cc2)c2ccc(O)cc12", "< 5.52"),
    ("O=C(O)[C@H]1C[C@H](Oc2nc(C3CCOCC3)c(-c3ccc(F)c(F)c3)c3ccc(O)cc23)C1", "> 5.92"),
    ("Cc1cc(-c2c(C(C)C)nc(O[C@H]3C[C@H](C(=O)O)C3)c3cc(O)ccc23)ccn1", "> 5.92"),
    ("Cc1cc(-c2c(C(C)C)nc(C[C@@H](C)C(=O)O)c3cc(O)ccc23)ccc1F", "> 5.92"),
    ("CC(C)(CO)c1[nH]c(=O)c2cc(O)ccc2c1-c1ccc(F)cc1", "5.52 to 5.92"),
    ("CC(C)c1c(C[C@@H](C)C(=O)O)nc2cc(O)ccc2c1-c1ccc(F)cc1", "> 5.92"),
    ("Cc1cc(-c2c(C(C)C)c(N[C@H](C)C(=O)O)nc3cc(O)ccc23)ccc1F", "> 5.92"),
    ("Cc1cc(-c2c(C(C)C)nc(OCC(=O)O)c3cc(O)ccc23)ccc1F", "5.52 to 5.92"),
]

Query string: Fill in the blank: the reported pEC50 of O=C(NC1CCS(=O)(=O)C1)c1nc(C2CCOCC2)c(-c2ccc(F)cc2)c2ccc(O)cc12 (centres unmarked) is ____.
Result string: < 5.52

Query string: And Cc1cc(-c2c(C(C)C)nc(C(=O)Nc3ccc(C(=O)O)cn3)c3cc(O)ccc23)ccc1F ?
Result string: > 5.92

Query string: What do we get for O=C(O)C1(Oc2nc(C3CCOCC3)c(-c3ccc(F)cc3)c3ccc(O)cc23)CC1 ?
Result string: 5.52 to 5.92

Query string: Then Cc1cc(-c2c(C3CCOCC3)nc(CCCC(=O)O)c3cc(O)ccc23)ccc1F ?
Result string: > 5.92
